Biological target: Histone deacetylase 4 (Homo sapiens, UniProt P56524)
Sequence (P56524 whole entry): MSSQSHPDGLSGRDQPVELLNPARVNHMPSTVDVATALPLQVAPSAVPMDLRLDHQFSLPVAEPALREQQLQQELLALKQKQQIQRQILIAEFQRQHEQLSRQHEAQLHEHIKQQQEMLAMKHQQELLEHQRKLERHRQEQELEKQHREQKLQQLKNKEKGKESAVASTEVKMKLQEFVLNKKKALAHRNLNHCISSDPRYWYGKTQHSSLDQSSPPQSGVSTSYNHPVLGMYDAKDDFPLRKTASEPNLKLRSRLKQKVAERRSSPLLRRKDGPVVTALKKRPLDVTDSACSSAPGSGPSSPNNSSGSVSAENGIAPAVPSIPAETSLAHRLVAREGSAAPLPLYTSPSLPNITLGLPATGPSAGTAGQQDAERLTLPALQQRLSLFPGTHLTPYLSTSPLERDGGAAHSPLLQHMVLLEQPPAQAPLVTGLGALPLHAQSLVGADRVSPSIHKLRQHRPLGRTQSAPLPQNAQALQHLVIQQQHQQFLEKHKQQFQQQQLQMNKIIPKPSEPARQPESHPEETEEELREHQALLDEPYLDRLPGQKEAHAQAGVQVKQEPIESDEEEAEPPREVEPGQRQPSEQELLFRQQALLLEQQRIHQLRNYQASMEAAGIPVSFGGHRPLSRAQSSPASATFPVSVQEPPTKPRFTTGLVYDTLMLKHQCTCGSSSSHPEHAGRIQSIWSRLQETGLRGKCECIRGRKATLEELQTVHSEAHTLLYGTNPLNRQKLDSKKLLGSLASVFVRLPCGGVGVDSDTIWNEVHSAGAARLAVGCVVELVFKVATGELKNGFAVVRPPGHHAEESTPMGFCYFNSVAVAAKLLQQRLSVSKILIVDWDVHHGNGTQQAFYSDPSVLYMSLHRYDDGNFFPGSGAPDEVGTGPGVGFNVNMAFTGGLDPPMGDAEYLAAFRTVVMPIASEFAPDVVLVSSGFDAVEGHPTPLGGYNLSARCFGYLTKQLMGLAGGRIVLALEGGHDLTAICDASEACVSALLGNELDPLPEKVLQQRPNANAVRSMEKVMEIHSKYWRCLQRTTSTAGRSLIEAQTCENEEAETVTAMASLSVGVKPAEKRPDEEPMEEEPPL
Test: Inhibition of human recombinant HDAC4 incubated for 17 hrs
pIC50: −log10 of the molar value.
PARAMETER MEASURED: pIC50

Ask: Enter measured pIC50, system Histone deacetylase 4 (Homo sapiens, UniProt P56524), for the compound shown: `Nc1ccc(F)cc1NC(=O)c1ccc(CNC(=O)/C=C/c2cccnc2)cc1`
Result: < 4.52

---

Biological target: Protein deacetylase HDAC6 (Homo sapiens, UniProt Q9UBN7)
Sequence (Q9UBN7 whole entry): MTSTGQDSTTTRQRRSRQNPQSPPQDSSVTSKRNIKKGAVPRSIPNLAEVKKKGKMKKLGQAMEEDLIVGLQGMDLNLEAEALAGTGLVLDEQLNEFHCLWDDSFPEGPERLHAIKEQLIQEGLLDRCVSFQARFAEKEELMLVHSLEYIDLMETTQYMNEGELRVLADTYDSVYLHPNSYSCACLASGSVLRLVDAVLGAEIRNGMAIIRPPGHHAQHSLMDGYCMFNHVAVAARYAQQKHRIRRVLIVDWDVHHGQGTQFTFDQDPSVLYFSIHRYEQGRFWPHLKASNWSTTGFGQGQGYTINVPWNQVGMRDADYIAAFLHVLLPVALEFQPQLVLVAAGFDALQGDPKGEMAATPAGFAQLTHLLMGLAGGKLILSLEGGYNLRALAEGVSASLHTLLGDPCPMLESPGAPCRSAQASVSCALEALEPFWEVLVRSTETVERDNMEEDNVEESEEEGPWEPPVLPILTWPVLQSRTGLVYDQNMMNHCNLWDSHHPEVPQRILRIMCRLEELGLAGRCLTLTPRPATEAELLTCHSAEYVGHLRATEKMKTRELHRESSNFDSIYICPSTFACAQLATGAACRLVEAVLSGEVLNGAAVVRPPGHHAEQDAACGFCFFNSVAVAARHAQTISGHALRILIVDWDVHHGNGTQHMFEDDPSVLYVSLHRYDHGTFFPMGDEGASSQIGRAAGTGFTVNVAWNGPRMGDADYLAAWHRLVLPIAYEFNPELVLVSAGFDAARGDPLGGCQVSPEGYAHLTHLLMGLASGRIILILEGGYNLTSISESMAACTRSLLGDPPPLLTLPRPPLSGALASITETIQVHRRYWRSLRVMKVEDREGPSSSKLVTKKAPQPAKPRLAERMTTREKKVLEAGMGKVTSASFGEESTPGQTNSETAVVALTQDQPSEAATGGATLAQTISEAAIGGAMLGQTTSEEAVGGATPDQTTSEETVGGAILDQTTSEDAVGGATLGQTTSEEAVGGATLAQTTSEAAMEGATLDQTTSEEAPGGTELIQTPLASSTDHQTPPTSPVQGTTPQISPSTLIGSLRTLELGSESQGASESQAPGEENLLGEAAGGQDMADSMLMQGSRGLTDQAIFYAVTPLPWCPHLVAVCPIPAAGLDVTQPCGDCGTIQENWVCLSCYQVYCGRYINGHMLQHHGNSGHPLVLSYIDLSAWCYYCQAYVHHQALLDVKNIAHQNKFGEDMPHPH
Experiment: Inhibition of human full length recombinant HDAC6 expressed in baculovirus infected Sf9 cells using RHKKAc as substrate preincubated for 5 to 10 mins followed by substrate addition and measured after 2 hrs by fluorescence based analysis
Record form. Attribute: IC50. Fill in for each entry.
Answers are plain numbers, in µM.

Worked examples, 4 compounds total:
{"COMPOUND": "Cc1onc(-c2ccccc2)c1/C=C\\CCCCCNC(=O)CS", "PARAMETER MEASURED": "IC50", "UNIT INFO": "µM", "VALUE OBSERVED": 4.8}
{"COMPOUND": "Cc1onc(-c2ccccc2)c1C(=O)NCCCCCNC(=O)C(C)S (racemic)", "PARAMETER MEASURED": "IC50", "UNIT INFO": "µM", "VALUE OBSERVED": 1.1}
{"COMPOUND": "Cc1onc(-c2ccccc2)c1COCCCCCNC(=O)[C@@H](C)S", "PARAMETER MEASURED": "IC50", "UNIT INFO": "µM", "VALUE OBSERVED": 0.83}
{"COMPOUND": "Cc1onc(-c2ccccc2)c1C=CCCCCCNC(=O)C(C)S (mixture of isomers)", "PARAMETER MEASURED": "IC50", "UNIT INFO": "µM", "VALUE OBSERVED": 9.8}

As a next step, examine the compound that follows.
Ask: Please indicate IC50 recorded for `Cc1onc(-c2ccccc2)c1/C=C/CCCCCNC(=O)CS`
Result: 3.5

---

Assay: Solubility of compound in PBS at pH 7.4 at 37 degreeC measured after 24 hrs
Assay type: physicochemical
For each of the compounds below, state its solubility at 24 h.
Respond with a number, then the unit of measure.

{"COMPOUND STRUCTURE STRING": "O=C(CS)NCCCCCC(=O)Nc1cccc2cccnc12", "solubility at 24 h": "150 µg/mL"}

Ask: Input `CN(C)c1ccc(C(=O)NCCCCCNC(=O)CS)cc1` , output reported solubility at 24 h.
Result: 120 µg/mL

---

Target: Histone deacetylase 11 (Homo sapiens, UniProt Q96DB2)
Sequence (Q96DB2 whole entry): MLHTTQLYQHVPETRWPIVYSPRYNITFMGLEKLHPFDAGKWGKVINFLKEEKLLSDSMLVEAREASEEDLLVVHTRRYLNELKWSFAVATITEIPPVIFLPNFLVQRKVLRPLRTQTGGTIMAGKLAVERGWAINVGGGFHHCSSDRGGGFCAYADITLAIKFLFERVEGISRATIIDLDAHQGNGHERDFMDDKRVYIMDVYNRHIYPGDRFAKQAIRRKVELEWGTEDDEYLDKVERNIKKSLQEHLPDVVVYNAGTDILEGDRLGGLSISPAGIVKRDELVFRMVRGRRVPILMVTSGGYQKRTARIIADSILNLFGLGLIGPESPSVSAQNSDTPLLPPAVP
Assay: Inhibition of human recombinant HDAC11 incubated for 17 hrs
PARAMETER MEASURED: IC50 (nM)
One number for each entry, in nM.

Ask: Supply IC50 value. Item: `Nc1ccc(F)cc1NC(=O)c1ccc(CNC(=O)/C=C/c2cccnc2)cc1`
Result: 432

---

Assay: Apparent permeability across apical to basolateral side in human Caco-2 cells
Format: ADME, cell-based
PARAMETER MEASURED: Papp A→B (×10⁻⁶ cm/s)
One number for each entry, in ×10⁻⁶ cm/s.

Guide cases for Papp A→B, answers given:
{"COMPOUND STRUCTURE STRING": "O=C(CCCCCCC(=O)Nc1ccccc1)NO", "PARAMETER MEASURED": "Papp A→B", "VALUE OBSERVED": 3}
{"COMPOUND STRUCTURE STRING": "O=C(CS)NCCCCCC(=O)Nc1cccc2cccnc12", "PARAMETER MEASURED": "Papp A→B", "VALUE OBSERVED": 15}

API: the following record is the query input.
Ask: Return Papp A→B (reported value) for this compound: `CN(C)c1ccc(C(=O)NCCCCCNC(=O)CS)cc1`
Result: 7.33

---

Task for the reader: assign each of the following compounds its reported CL/F.
Assay: Clearance in mouse at 400 mg/kg, ip
Type: ADME, organism-based
Conditions: in vivo
Give bare numbers, in mL/min.

{"COMPOUND STRUCTURE STRING": "CN(C)c1ccc(C(=O)NCCCCCNC(=O)CS)cc1", "CL/F (mL/min)": 81.2}

Ask: Respond only with CL/F recorded for `O=C(CS)NCCCCCC(=O)Nc1cccc2cccnc12`
Result: 67.5

---

Target: Histone deacetylase 2 (Homo sapiens)
Sequence (Q92769 whole entry): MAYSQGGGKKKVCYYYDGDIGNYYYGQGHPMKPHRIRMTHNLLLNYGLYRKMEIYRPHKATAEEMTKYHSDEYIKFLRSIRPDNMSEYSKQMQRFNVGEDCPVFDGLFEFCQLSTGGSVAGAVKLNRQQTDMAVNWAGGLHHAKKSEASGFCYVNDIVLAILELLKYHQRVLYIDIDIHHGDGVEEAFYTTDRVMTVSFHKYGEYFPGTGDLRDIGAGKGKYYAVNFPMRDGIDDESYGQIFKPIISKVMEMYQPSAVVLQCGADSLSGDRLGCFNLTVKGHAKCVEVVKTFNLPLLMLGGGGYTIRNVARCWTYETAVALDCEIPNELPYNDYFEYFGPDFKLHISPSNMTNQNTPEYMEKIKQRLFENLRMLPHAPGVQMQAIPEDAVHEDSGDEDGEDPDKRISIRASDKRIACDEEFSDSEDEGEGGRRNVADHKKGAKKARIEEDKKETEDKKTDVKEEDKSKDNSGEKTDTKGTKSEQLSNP
Test: Inhibition of human HDAC2 using FAM-labeled acetylated peptide as substrate incubated for 17 hrs by fluorescence based assay
PARAMETER MEASURED: IC50

Reference set (2 entries):
{"COMPOUND STRUCTURE STRING": "NCC(=O)Nc1ccccc1-c1ccc(NC(=O)CCCCCNC(=O)CS)cc1", "TESTED TARGET": "Histone deacetylase 2 (Homo sapiens)", "IC50": "16 µM"}
{"COMPOUND STRUCTURE STRING": "N[C@@H](Cc1ccccc1)C(=O)Nc1ccccc1-c1ccc(NC(=O)CCCCCNC(=O)CS)cc1", "TESTED TARGET": "Histone deacetylase 2 (Homo sapiens)", "IC50": "> 30 µM"}

Shift focus to the following entry.
Ask: # return IC50 for `N[C@@H](Cc1c[nH]c2ccccc12)C(=O)Nc1ccccc1-c1ccc(NC(=O)CCCCCNC(=O)CS)cc1` , test system: Histone deacetylase 2 (Homo sapiens)
Result: > 30 µM

---

Would you mind telling me the reported solubility at 24 h of each entry?
Experiment: Solubility of compound in HCl at pH 1.2 at 37 degreeC measured after 24 hrs
Type: physicochemical
One number for each entry, in mg/mL.

{"COMPOUND STRUCTURE STRING": "CN(C)c1ccc(C(=O)NCCCCCNC(=O)CS)cc1", "solubility at 24 h, mg/mL": 1}

Ask: Supply solubility at 24 h value. Item: `O=C(CS)NCCCCCC(=O)Nc1cccc2cccnc12`
Result: 1

---

Molecular target: Histone deacetylase 1 (Homo sapiens, UniProt Q13547)
Sequence (Q13547 whole entry): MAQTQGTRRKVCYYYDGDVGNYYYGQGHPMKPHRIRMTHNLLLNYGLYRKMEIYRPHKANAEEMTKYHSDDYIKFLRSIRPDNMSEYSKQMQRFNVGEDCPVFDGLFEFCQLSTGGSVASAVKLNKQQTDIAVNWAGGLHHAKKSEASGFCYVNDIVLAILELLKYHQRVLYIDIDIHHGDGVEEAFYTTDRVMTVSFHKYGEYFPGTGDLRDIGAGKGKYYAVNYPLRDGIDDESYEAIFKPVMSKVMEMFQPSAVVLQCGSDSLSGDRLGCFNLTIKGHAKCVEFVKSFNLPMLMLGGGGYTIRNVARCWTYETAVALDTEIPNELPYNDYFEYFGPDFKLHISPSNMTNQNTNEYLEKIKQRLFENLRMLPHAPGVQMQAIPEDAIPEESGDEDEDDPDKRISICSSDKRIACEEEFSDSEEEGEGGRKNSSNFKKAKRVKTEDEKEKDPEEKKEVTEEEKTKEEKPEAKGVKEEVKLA
Test: Inhibition of human full length recombinant HDAC1 expressed in baculovirus infected Sf9 cells using RHKKAc as substrate preincubated for 5 to 10 mins followed by substrate addition and measured after 2 hrs by fluorescence based analysis
Exercise: for every item that follows, state its recorded IC50.

// solved cases for IC50 follow
{"MOLECULE": "Cc1onc(-c2ccccc2)c1COCCCCCNC(=O)C(C)S (racemic)", "VALUE OBSERVED": "9.6 µM"}
{"MOLECULE": "Cc1noc(-c2cccc(F)c2)c1C#CCCCCCNC(=O)C(C)S (racemic)", "VALUE OBSERVED": "3.7 µM"}
{"MOLECULE": "Cc1onc(-c2ccccc2)c1/C=C/c1ccc(CNC(=O)C(C)S)cc1 (racemic)", "VALUE OBSERVED": "> 30 µM"}

Your task in this section: give IC50 for each listed record.
1. Cc1onc(-c2ccccc2)c1/C=C\CCCCCNC(=O)CS
2. Cc1onc(-c2ccccc2)c1C(=O)NCCCCCNC(=O)[C@H](C)S

Result:
["> 30 µM", "> 30 µM"]

Please report IC50 for every entry that follows.
1. Cc1onc(-c2ccccc2)c1COCCCCCNC(=O)[C@H](C)S
2. Cc1onc(-c2ccccc2)c1C(=O)NCCCCCNC(=O)C(C)(C)S
3. Cc1noc(-c2ccccc2)c1C#CCCCCCNC(=O)C(C)(C)S
4. Cc1onc(-c2ccccc2)c1C=CCCCCCNC(=O)C(C)S (mixture of isomers)
5. Cc1onc(-c2ccccc2)c1COCCCCCNC(=O)[C@@H](C)S

Result:
1: > 30 µM; 2: > 30 µM; 3: > 30 µM; 4: > 30 µM; 5: 1.5 µM

Ask: Please report the measured IC50 for `Cc1noc(-c2ccccc2)c1C#CCCCCNC(=O)C(C)(C)S` tested on Histone deacetylase 1 (Homo sapiens, UniProt Q13547).
Result: > 30 µM

---

Exercise: state measured pIC50 for each of the compounds provided.
Target: UniProt Q92769
Experiment: Inhibition of human full length recombinant HDAC2 expressed in baculovirus infected Sf9 cells using RHKKAc as substrate preincubated for 5 to 10 mins followed by substrate addition and measured after 2 hrs by fluorescence based analysis
pIC50: −log10 of the molar value.

{"COMPOUND": "Cc1noc(-c2ccccc2)c1C#CCCCCNC(=O)C(C)(C)S", "pIC50": "< 4.52"}

Return reported pIC50 values for all items listed beneath this line.
1. Cc1onc(-c2ccccc2)c1C=CCCCCCNC(=O)CS (mixture of isomers)
2. Cc1onc(-c2ccccc2)c1COCCCCCNC(=O)C(C)S (racemic)

Result:
["< 4.52", 4.85]

---

Experiment: Stability in human liver microsomes assessed as half life
Format: ADME, Microsome
PARAMETER MEASURED: half-life
Number first, unit second: that is the form wanted.

{"COMPOUND STRUCTURE STRING": "CN(C)c1ccc(C(=O)NCCCCCNC(=O)CS)cc1", "PARAMETER MEASURED": "half-life", "VALUE OBSERVED": "1.13 h"}

Now consider a different compound.
Ask: Return reported half-life. Input compound: `O=C(CS)NCCCCCC(=O)Nc1cccc2cccnc12`
Result: 1.38 h
